# procedure_summary: Cytotoxicity against HEK293 cells
# Format: cell-based
# condition_summary: human, read-out: LC50 (the source's name)
Structures can show the parent of a compound that is named as a salt.
Just a reminder that ties go to criterion not met: only CC50 strictly below 20 mM counts as criterion met.

C[C@H](N)[C@H]1O[C@@H](O[C@@H]2[C@@H](O)[C@H](N)C[C@H](N)[C@H]2O[C@H]2O[C@H](CO)[C@@H](O)[C@H](O)[C@H]2N)[C@H](O)[C@@H]1O
criterion not met
C[C@H](N)[C@H]1O[C@@H](O[C@@H]2[C@@H](O)[C@H](NC(=O)[C@@H](O)CCN)C[C@H](N)[C@H]2O[C@H]2O[C@H](CO)[C@@H](O)[C@H](O)[C@H]2N)[C@H](O)[C@@H]1O
criterion met
C[C@@H](N)[C@H]1O[C@@H](O[C@@H]2[C@@H](O)[C@H](NC(=O)[C@@H](O)CCN)C[C@H](N)[C@H]2O[C@H]2O[C@H](CO)[C@@H](O)[C@H](O)[C@H]2N)[C@H](O)[C@@H]1O
criterion met
NC[C@@H]1O[C@H](O[C@H]2[C@@H](O)[C@H](O[C@@H]3[C@@H](O)[C@H](N)C[C@H](N)[C@H]3O[C@H]3O[C@H](CO)[C@@H](O)[C@H](O)[C@H]3N)O[C@@H]2CO)[C@H](N)[C@@H](O)[C@@H]1O [PAROMOMYCIN SULFATE]
criterion met

* * *

# Tested on: Ribosome
# procedure_summary: Inhibition of ribosome-mediated translation in prokaryotic system
pIC50: −log10 of the molar value. Structures can show the parent of a compound that is named as a salt.
Measured pIC50, listed per entry for reference.
assay_endpoint: pIC50

NCC[C@H](O)C(=O)N[C@@H]1C[C@H](N)[C@@H](O[C@H]2O[C@H](CO)[C@@H](O)[C@H](O)[C@H]2N)[C@H](O[C@@H]2O[C@H](CN)[C@@H](O)[C@H]2O)[C@H]1O
6.80
C[C@@H](N)[C@H]1O[C@@H](O[C@@H]2[C@@H](O)[C@H](N)C[C@H](N)[C@H]2O[C@H]2O[C@H](CO)[C@@H](O)[C@H](O)[C@H]2N)[C@H](O)[C@@H]1O
5.67
NC[C@H]1O[C@@H](O[C@@H]2[C@@H](O)[C@H](N)C[C@H](N)[C@H]2O[C@H]2O[C@H](CO)[C@@H](O)[C@H](O)[C@H]2N)[C@H](O)[C@@H]1O
6.34
NC[C@@H]1O[C@H](O[C@H]2[C@@H](O)[C@H](O[C@@H]3[C@@H](O)[C@H](N)C[C@H](N)[C@H]3O[C@H]3O[C@H](CO)[C@@H](O)[C@H](O)[C@H]3N)O[C@@H]2CO)[C@H](N)[C@@H](O)[C@@H]1O [PAROMOMYCIN SULFATE]
7.29

* * *

# Tested on: HFF
# procedure_summary: Cytotoxicity against HFF
# Assay type: cell-based
# condition_summary: human, hff; read-out: LC50 (the source's name)
assay_endpoint: CC50

GENTAMICIN SULFATE
3.2 mM

* * *

# Tested on: Ribosome
# procedure_summary: Inhibition of ribosome-mediated translation in prokaryotic system
assay_endpoint: IC50 (µM)

C[C@@H](N)[C@H]1O[C@@H](O[C@@H]2[C@@H](O)[C@H](NC(=O)[C@@H](O)CCN)C[C@H](N)[C@H]2O[C@H]2O[C@H](CO)[C@@H](O)[C@H](O)[C@H]2N)[C@H](O)[C@@H]1O
0.811
C[C@H](N)[C@H]1O[C@@H](O[C@@H]2[C@@H](O)[C@H](NC(=O)[C@@H](O)CCN)C[C@H](N)[C@H]2O[C@H]2O[C@H](CO)[C@@H](O)[C@H](O)[C@H]2N)[C@H](O)[C@@H]1O
2.27
C[C@H](N)[C@H]1O[C@@H](O[C@@H]2[C@@H](O)[C@H](N)C[C@H](N)[C@H]2O[C@H]2O[C@H](CO)[C@@H](O)[C@H](O)[C@H]2N)[C@H](O)[C@@H]1O
1.96

* * *

# procedure_summary: Cytotoxicity against HFF
# Format: cell-based
# condition_summary: human, HFF cells; read-out: LC50 (the source's name)
Counter-ions that a name gives are not always drawn.
Just a reminder that ties go to Not fulfilled: only CC50 strictly below 20 mM counts as Fulfilled.

NC[C@@H]1O[C@H](O[C@H]2[C@@H](O)[C@H](O[C@@H]3[C@@H](O)[C@H](N)C[C@H](N)[C@H]3O[C@H]3O[C@H](CO)[C@@H](O)[C@H](O)[C@H]3N)O[C@@H]2CO)[C@H](N)[C@@H](O)[C@@H]1O [PAROMOMYCIN SULFATE]
Fulfilled
C[C@H](N)[C@H]1O[C@@H](O[C@@H]2[C@@H](O)[C@H](N)C[C@H](N)[C@H]2O[C@H]2O[C@H](CO)[C@@H](O)[C@H](O)[C@H]2N)[C@H](O)[C@@H]1O
Not fulfilled
NC[C@H]1O[C@@H](O[C@@H]2[C@@H](O)[C@H](N)C[C@H](N)[C@H]2O[C@H]2O[C@H](CO)[C@@H](O)[C@H](O)[C@H]2N)[C@H](O)[C@@H]1O
Not fulfilled
C[C@H](N)[C@H]1O[C@@H](O[C@@H]2[C@@H](O)[C@H](NC(=O)[C@@H](O)CCN)C[C@H](N)[C@H]2O[C@H]2O[C@H](CO)[C@@H](O)[C@H](O)[C@H]2N)[C@H](O)[C@@H]1O
Fulfilled
NCC[C@H](O)C(=O)N[C@@H]1C[C@H](N)[C@@H](O[C@H]2O[C@H](CO)[C@@H](O)[C@H](O)[C@H]2N)[C@H](O[C@@H]2O[C@H](CN)[C@@H](O)[C@H]2O)[C@H]1O
Fulfilled
C[C@@H](N)[C@H]1O[C@@H](O[C@@H]2[C@@H](O)[C@H](NC(=O)[C@@H](O)CCN)C[C@H](N)[C@H]2O[C@H]2O[C@H](CO)[C@@H](O)[C@H](O)[C@H]2N)[C@H](O)[C@@H]1O
Fulfilled

Attribution: ChEMBL document CHEMBL3217644
